test: chemical genetic growth profiling, strain panel (AID 1159580);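 further: tested at 20 µM; growth read once vehicle control cultures reached saturation at 30 °C; 1 = growth at the plate median or of vehicle wells; lower values mean less growth of the strain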; conditions: S. cerevisiae deletion strains, growth OD, locus YNL209W, strain ssb2, active compounds read low
Out of some 5,500 compounds screened, about 2,000 (36%) were called active. Another 18% or so got no clear call; they are omitted. The list shows a part of the results.
Below is a list of entries, each paired with its recorded normalized growth value.
Metric name: normalized growth

S=P(N1CC1)(N1CC1)N1CC1 | 1.02
COc1c2ccccc2nc2occc12 | 0.952
CC(CN(C)C)CN1c2ccccc2Sc2ccccc21 (configuration not stated) | 1.02
COc1cc(S(C)=O)ccc1-c1nc2ncccc2[nH]1 (configuration not stated) | 0.98
CN(C)C(=O)Nc1ccc(Cl)c(Cl)c1 | 0.972
CCN(CC)C(C)CN1c2ccccc2Sc2ccccc21 (configuration not stated) | 0.891
CCC(=O)Nc1ccc(Cl)c(Cl)c1 | 0.988

====

assay: chemical genetic growth profiling, strain panel (AID 1159580); details: S. cerevisiae deletion strains, growth OD, locus YLR370C, strain arc18, active compounds read low
Screen size: about 5,500 compounds; about 2,000 (36%) were called active. Not shown: some 18% with an inconclusive outcome. This is one part of the list.
Below is a list of entries, each paired with its recorded normalized growth value.
Metric name: normalized growth

COc1cc(C)c(C(=O)Oc2cc(C)c(C(=O)O)c(O)c2C)c(OC)c1C | 0.999
NNCCc1ccccc1 | 1.01
CC(=O)Nc1nnc(S(N)(=O)=O)s1 | 0.996
COc1c2ccccc2nc2occc12 | 0.967
C=C[C@H]1CN2CC[C@H]1C[C@@H]2[C@H](O)c1ccnc2ccccc12 | 0.994
NC(N)=O | 1.02
Nc1cc(C(Cl)=C(Cl)Cl)c(S(N)(=O)=O)cc1S(N)(=O)=O | 1
CCC(=O)Nc1ccc(Cl)c(Cl)c1 | 0.985
Cc1cc(O)c(C=O)c2c1C(=O)Oc1c(COC(=O)/C=C/C(=O)O)c(O)c(C(=O)O)c(C)c1O2 | 0.967
Nc1ccn(C2O[C@H](CO)[C@@H](O)[C@H]2O)c(=O)n1 (stereo partly drawn) | 0.998
CC(CN(C)C)CN1c2ccccc2Sc2ccccc21 (stereo not drawn) | 1.02
COc1ccc(C(=O)N2CCCC2=O)cc1 | 0.963
O=C(Nc1ccccc1)Nc1ccccc1 | 0.932

====

test: chemical genetic growth profiling, strain panel (AID 1159580); conditions: S. cerevisiae deletion strains, growth OD, locus YJL134W, strain LCB3, active compounds read low
In all, about 5,500 compounds went through this assay and about 2,000 (36%) were called active. Another 18% or so got no clear call; they are omitted. The list shows a part of the results.
Label key: t means normalized growth under 1; f means normalized growth of 1 or more.

O=c1cc(-c2ccccc2)oc2cc(O)c(O)c(O)c12 | t
N[C@@H](Cc1cc(I)c(Oc2cc(I)c(O)c(I)c2)c(I)c1)C(=O)O | f
C[C@H](CCC(=O)O)[C@H]1CCC2C3C(CC[C@@]21C)[C@@]1(C)CC[C@@H](O)C[C@H]1C[C@H]3O (stereo partly drawn) | f

====

experiment: chemical genetic growth profiling, strain panel (AID 1159580); settings: S. cerevisiae deletion strains, growth OD, locus YLR102C, strain apc9, active compounds read low
Out of some 5,500 compounds screened, about 2,000 (36%) were called active. About 18% were inconclusive and are not listed. This is one part of the list.
Metric name: normalized growth

Nc1cc(-c2ccncc2)c[nH]c1=O | 0.983
Nc1ccncc1 | 0.97
C[C@H](N)[C@H](O)c1cccc(O)c1 | 0.993
COc1cc(C(=O)O)c2c(c1C)OC(=O)c1c(C)cc(O)c(C=O)c1O2 | 0.984
C[C@H](N)[C@H](O)c1ccccc1 | 1
Cc1cc(O)c(C)c2c1C(=O)Oc1c(C)c(O)c(C(=O)O)c(C)c1O2 | 0.988
Cc1cc(O)c(C=O)c2c1C(=O)Oc1c(C)c(O)c3c(c1O2)C(O)OC3=O (configuration not stated) | 0.986
S=P(N1CC1)(N1CC1)N1CC1 | 1.01
O=c1cc(-c2cc(O)c(O)c(O)c2)oc2cc(O)cc(O)c12 | 0.995
Cc1cc(O)c(C=O)c2c1C(=O)Oc1c(COC(=O)/C=C/C(=O)O)c(O)c(C(=O)O)c(C)c1O2 | 0.991
CN1CCN(C2=Nc3ccccc3Oc3ccc(Cl)cc32)CC1 | 0.994
CCCCCC1C(=O)CCC1CC(=O)OC (configuration not stated) | 0.956

====

assay: chemical genetic growth profiling, strain panel (AID 1159580); settings: S. cerevisiae deletion strains, growth OD, locus YCL061C, strain MRC1
The campaign covered roughly 5,500 compounds. About 2,000 (36%) were called active. Inconclusive results (about 18%) are left out. Cut-off read from the data, not from the text of the source: active = normalized growth mostly below about 0.91 (no sharp cut-off); inconclusive = no clear call, values can overlap the other calls; inactive = mostly above about 0.92. Some of the results follow.
Outcomes: YES for active, NO for inactive

c1ccc2nc(N3CCNCC3)ccc2c1 | NO
COc1cc([C@H]2Oc3cc([C@H]4Oc5cc(O)cc(O)c5C(=O)[C@@H]4O)ccc3O[C@@H]2CO)ccc1O | NO
Cc1cc(O)c(C=O)c2c1C(=O)Oc1c(COC(=O)/C=C/C(=O)O)c(O)c(C(=O)O)c(C)c1O2 | YES
C[C@@H]1CC2C3CCC4=CC(=O)C=C[C@]4(C)[C@@]3(F)[C@@H](O)C[C@]2(C)[C@H]1C(=O)CO (stereo not given in full) | NO
CC12CC3CC(C)(C1)CC(N)(C3)C2 | NO
Nc1cc(C(Cl)=C(Cl)Cl)c(S(N)(=O)=O)cc1S(N)(=O)=O | NO
CCCCC[C@H](CC(=O)NO)C(=O)N[C@H](C(=O)N1CCC[C@H]1CO)C(C)C | NO
N#C/C(=C\c1cccc(O)c1)C(=O)O | NO
NC(=O)c1ncn(C2O[C@H](CO)[C@@H](O)[C@H]2O)c1N (stereo not given in full) | NO
Cc1onc(-c2ccccc2)c1-c1nc(CSc2ccc(C(F)(F)F)cn2)no1 | NO

====

Below is a list of entries, each paired with its recorded normalized growth value.
experiment: chemical genetic growth profiling, strain panel (AID 1159580);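 further: tested at 20 µM; growth read once vehicle control cultures reached saturation at 30 °C; 1 = growth at the plate median or of vehicle wells; lower values mean less growth of the strain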; conditions: S. cerevisiae deletion strains, growth OD, locus YGL248W, strain PDE1, active compounds read low
Screen size: about 5,500 compounds; about 2,000 (36%) were called active. Inconclusive results (about 18%) are left out. The list shows a part of the results.
Metric name: normalized growth

CC(CN(C)C)CN1c2ccccc2CCc2ccccc21 (configuration not stated) | 0.996
Cc1cc(O)c(C)c2c1C(=O)Oc1c(C)c(O)c(C(=O)O)c(C)c1O2 | 0.989
CCC(=O)c1ccc2c(c1)N(CC(C)N(C)C)c1ccccc1S2 (configuration not stated) | 0.966
CC(CN1c2ccccc2Sc2ccccc21)N(C)C (configuration not stated) | 0.945
Cc1cc(O)c(C=O)c2c1C(=O)Oc1c(C)c(O)c3c(c1O2)C(O)OC3=O (configuration not stated) | 1
CC(CN(C)C)CN1c2ccccc2Sc2ccccc21 (configuration not stated) | 0.995
OC1=Cc2c(O)cc(O)cc2OC1(O)c1ccc(O)c(O)c1 (configuration not stated) | 0.979
O=c1[nH]cnc2[nH]ncc12 | 1.01
CN(C)C(=O)Nc1ccc(Cl)c(Cl)c1 | 0.987
COc1cc(C(=O)O)c2c(c1C)OC(=O)c1c(C)cc(O)c(C=O)c1O2 | 1.01
CC1(C)C(=O)C=C[C@@]2(C)C1CC(=O)[C@@]1(C)C3=CC(=O)O[C@@H](c4ccoc4)[C@]3(C)CCC12 (some centres not stated) | 0.997
CCCC(C(=O)OCCN(CC)CC)(c1ccccc1)c1ccccc1 | 1.02

====

assay: chemical genetic growth profiling, strain panel (AID 1159580);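 further: tested at 20 µM; growth read once vehicle control cultures reached saturation at 30 °C; 1 = growth at the plate median or of vehicle wells; lower values mean less growth of the strain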; details: S. cerevisiae deletion strains, growth OD, locus YLR262C, strain YPT6 (second series), active compounds read low
Hit rate of the full screen: of about 5,500 compounds, about 2,000 (36%) were called active. Another 18% or so got no clear call; they are omitted. This is one part of the list.
Below is a list of entries, each paired with its recorded normalized growth value.
Metric name: normalized growth

CC(=O)Nc1nnc(S(N)(=O)=O)s1 | 1.04
Cc1cc(O)c(C=O)c2c1C(=O)Oc1c(COC(=O)/C=C/C(=O)O)c(O)c(C(=O)O)c(C)c1O2 | 0.877
COc1cc(OC)c(OC)cc1C=O | 0.985
CO[C@]12C[C@@H](COC(=O)c3cncc(Br)c3)CN(C)[C@@H]1Cc1cn(C)c3cccc2c13 | 1.07
c1ccc2nc(N3CCNCC3)ccc2c1 | 1.03
Clc1ccc2c(c1)C(N1CCNCC1)=Nc1ccccc1O2 | 1.04

====

experiment: chemical genetic growth profiling, strain panel (AID 1159580);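 further: tested at 20 µM; growth read once vehicle control cultures reached saturation at 30 °C; 1 = growth at the plate median or of vehicle wells; lower values mean less growth of the strain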; settings: S. cerevisiae deletion strains, growth OD, locus YGL227W, strain vid30
The whole screen tested about 5,500 compounds, of which about 2,000 (36%) were called active. Inconclusive results (about 18%) are left out. No stated cut-off is given here; in the data, active means normalized growth mostly below about 0.91 (no sharp cut-off); inconclusive means no clear call, values can overlap the other calls; inactive means mostly above about 0.92. This is one part of the list.
Outcomes: Y (active), N (inactive)

N#C/C(=C\c1cccc(O)c1)C(=O)O | N
C=C1C2CC[C@@]3(C)[C@H](c4ccoc4)OC(=O)C[C@]13O[C@H]1CC(=O)C(C)(C)C(CC(=O)OC)[C@@]21C (some centres undefined) | N
CCOC(=O)[C@H](CCc1ccccc1)N[C@@H](C)C(=O)N1Cc2ccccc2C[C@H]1C(=O)O | N
O=C(O)c1ccccc1C(=O)Nc1ccc(S(=O)(=O)Nc2nccs2)cc1 | N
CC(=O)Nc1nnc(S(N)(=O)=O)s1 | N
C[C@@H](N)[C@@H](O)c1ccccc1 | N
C=C1C2CC[C@@]3(C)[C@H](c4ccoc4)OC(=O)C[C@]13O[C@H]1CC(O)C(C)(C)C(CC(=O)OC)[C@@]21C (some centres undefined) | N
CCN(CC)C(C)CN1c2ccccc2Sc2ccccc21 (centres undefined) | N
O=c1cc(-c2ccccc2)oc2cc(O)c(O)c(O)c12 | Y
O=c1[nH]cnc2[nH]ncc12 | N
CCCCCC1C(=O)CCC1CC(=O)O (centres undefined) | N
Cc1cc(C)cc(OCC2CNC(=O)O2)c1 (centres undefined) | N
CC1(C)C(O)CC(O)C2(C)C1CC(O)C1(C)C2CCC2(C)C(c3ccoc3)OC(=O)C3OC321 (centres undefined) | N
O=C(Nc1ccccc1)Nc1ccccc1 | N
CC(=O)Nc1ccccc1 | N
CCCCCC1C(=O)CCC1CC(=O)OC (centres undefined) | N
CC1CCC2(OC1)OC1CC3C4CCC5C[C@@H](O)CCC5(C)C4=CCC3(C)C1[C@@H]2C (some centres undefined) | N
CSc1ccc2c(c1)N(CCC1CCCCN1C)c1ccccc1S2 (centres undefined) | N
CNCCCN1c2ccccc2CCc2ccccc21 | N
CC1=C2[C@H]3OC(=O)[C@@H](C)[C@@H]3CC[C@@]2(C)C=CC1=O | N
CN1CCN(C2=Nc3ccccc3Oc3ccc(Cl)cc32)CC1 | N
CC(CN(C)C)CN1c2ccccc2Sc2ccccc21 (centres undefined) | N
CC(=O)N=c1sc(S(N)(=O)=O)nn1C | N
C/C=C/C(=O)N(CC)c1ccccc1C | N
